Ref: ChEMBL document CHEMBL1201862

Test system: EKVX
method: NCI tumour cell line growth inhibition, 48 h
Calls of active or inactive are those of the source. Rule as the data show it: active = GI50 up to about 1.1 µM and inactive = higher.
measurement_type: GI50

Some entries whose results are on file:
{"compound": "CN(C)NC(=O)/C(=C/c1ccc(Cl)cc1)NC(=O)c1ccccc1", "GI50": "> 100 µM (inactive)"}
{"compound": "Cc1ccc2ccc(=O)oc2c1", "GI50": "> 100 µM (inactive)"}
{"compound": "COC(=O)C1=Cc2cc(OC)c(OC)cc2[C@H](c2ccc(OC)c(OC)c2)C1C(=O)OC (stereo partly specified)", "GI50": "> 100 µM (inactive)"}

What the record says about `O=C1C=CC(=O)c2c1cc1ccccc1c2O` : GI50 is 11.5 µM (inactive)

response.value for `O=C1/C(=C/c2ccc([N+](=O)[O-])cc2)Sc2scc(-c3cccc([N+](=O)[O-])c3)[n+]21` (field: GI50) = 6.7 µM (inactive)

Given item CN1CC[C@]2(C)c3cc(O)ccc3CC3CCCC1C32C (stereo partly specified) , the value recorded as its GI50 is > 100 µM (inactive)
